Each item that follows carries a reported pIC50.
experimental-system: ABL1 (Homo sapiens, UniProt P00519)
Sequence (P00519 whole entry): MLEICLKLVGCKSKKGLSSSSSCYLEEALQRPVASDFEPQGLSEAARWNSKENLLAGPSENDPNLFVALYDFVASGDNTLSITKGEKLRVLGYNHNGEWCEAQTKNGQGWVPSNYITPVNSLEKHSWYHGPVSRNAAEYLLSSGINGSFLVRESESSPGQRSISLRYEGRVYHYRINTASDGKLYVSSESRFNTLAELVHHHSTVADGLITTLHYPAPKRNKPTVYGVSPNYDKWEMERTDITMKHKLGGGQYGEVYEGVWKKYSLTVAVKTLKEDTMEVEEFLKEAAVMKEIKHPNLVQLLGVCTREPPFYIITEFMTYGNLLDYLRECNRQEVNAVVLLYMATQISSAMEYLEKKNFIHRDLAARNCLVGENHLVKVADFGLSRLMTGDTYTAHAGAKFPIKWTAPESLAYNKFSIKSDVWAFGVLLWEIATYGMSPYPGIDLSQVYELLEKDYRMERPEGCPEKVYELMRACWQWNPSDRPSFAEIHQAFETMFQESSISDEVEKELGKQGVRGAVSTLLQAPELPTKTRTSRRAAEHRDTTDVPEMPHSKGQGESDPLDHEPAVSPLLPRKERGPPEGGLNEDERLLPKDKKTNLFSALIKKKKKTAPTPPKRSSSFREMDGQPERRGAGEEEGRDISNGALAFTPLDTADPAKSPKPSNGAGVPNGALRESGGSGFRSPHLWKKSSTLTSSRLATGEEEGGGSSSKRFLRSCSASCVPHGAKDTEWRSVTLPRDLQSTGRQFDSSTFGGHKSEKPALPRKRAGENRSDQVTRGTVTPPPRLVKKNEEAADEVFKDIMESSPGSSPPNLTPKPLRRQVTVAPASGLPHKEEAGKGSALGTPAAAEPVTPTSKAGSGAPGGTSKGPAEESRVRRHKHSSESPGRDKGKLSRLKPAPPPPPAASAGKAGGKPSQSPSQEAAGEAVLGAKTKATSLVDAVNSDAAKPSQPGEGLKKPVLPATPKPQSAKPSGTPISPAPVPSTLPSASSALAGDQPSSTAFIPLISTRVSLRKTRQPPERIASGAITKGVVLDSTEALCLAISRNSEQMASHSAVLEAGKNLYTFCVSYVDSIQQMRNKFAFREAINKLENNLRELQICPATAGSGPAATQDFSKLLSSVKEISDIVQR
experimental-details: IC50 inhibitory activity against ABL1 kinase
Format: biochemical
applied-conditions: read-out: ABL1 IC50
pIC50: −log10 of the molar value. Square brackets hold non-standard residues; d marks the D form. Peptide text beside a SMILES is read from it. * marks the point of attachment. X1 = Cc1ccc(Nc2ncc3c(n2)N(C)C(=O)N(c2cc(C(=O)*)ccc2C)C3)cn1; Aib = CC(C)(N)C(=O)O

{"molecule": "Cc1ccc(Nc2ncc3c(n2)N(C)C(=O)N(c2cc(NC(=O)c4ccc([N+](=O)[O-])c(OCCc5c[nH]c6ccccc56)c4)ccc2C)C3)cn1 [Example 50]", "pIC50": "6.70 to 9.00"}
{"molecule": "COc1ccc(CCOc2cc(C(=O)N[C@@H](C)C(=O)Nc3ccc(C)c(N4Cc5cnc(Nc6ccc(C)nc6)nc5N(C)C4=O)c3)ccc2[N+](=O)[O-])cc1 [Example 56]", "pIC50": "6.70 to 9.00"}
{"molecule": "Cc1ccc(Nc2ncc3c(n2)N(C)C(=O)N(c2cc(C(=O)N4C[C@@H](C(=O)NCc5ccccc5)[C@H](C(=O)NCc5ccc(Cl)cc5)C4)ccc2C)C3)cn1 [Example 47]", "pIC50": "6.70 to 9.00"}
{"molecule": "Cc1ccc(Nc2ncc3c(n2)N(C)C(=O)N(c2cc(NC(=O)[C@H](CC(C)C)NC(=O)c4ccc([N+](=O)[O-])c(OCC(C)C)c4)ccc2C)C3)cn1 [Example 54]", "pIC50": "6.70 to 9.00"}
{"molecule": "Cc1ccc(Nc2ncc3c(n2)N(C)C(=O)N(c2cc(NC(=O)c4ccc5c(c4)NC(=O)[C@H](C)N=C5c4ccccc4)ccc2C)C3)cn1 [Example 30]", "pIC50": "6.70 to 9.00"}
{"molecule": "Cc1ccc(Nc2ncc3c(n2)N(C)C(=O)N(c2cc(C(=O)N[C@@H](C)C(=O)N4CCC[C@H]4C(=O)NC(C)(C)C(=O)N[C@@H](CC(C)C)C(=O)N(C)C)ccc2C)C3)cn1 [Example 17] (X1-AP[Aib]L-NMe2)", "pIC50": "6.70 to 9.00"}
{"molecule": "CC[C@@H](C)[C@H]1N=C(c2ccccc2)c2ccc(C(=O)Nc3ccc(C)c(N4Cc5cnc(Nc6ccc(C)nc6)nc5N(C)C4=O)c3)cc2NC1=O [Example 32]", "pIC50": "6.70 to 9.00"}
{"molecule": "Cc1ccc(Nc2ncc3c(n2)N(C)C(=O)N(c2cc(NC(=O)c4ccc5c(c4)NC(=O)[C@H](Cc4ccccc4)N=C5c4ccccc4)ccc2C)C3)cn1 [Example 26]", "pIC50": "6.70 to 9.00"}
{"molecule": "Cc1ccc(Nc2ncc3c(n2)N(C)C(=O)N(c2cc(NC(=O)[C@H](Cc4c[nH]c5ccccc45)NC(=O)c4ccc([N+](=O)[O-])c(OCC(C)C)c4)ccc2C)C3)cn1 [Example 55]", "pIC50": "< 6.22"}
{"molecule": "Cc1ccc(Nc2ncc3c(n2)N(C)C(=O)N(c2cc(C(=O)N4C[C@@H](C(=O)NCCc5c[nH]c6ccccc56)[C@H](C(=O)NCc5ccc(Cl)cc5)C4)ccc2C)C3)cn1 [Example 48]", "pIC50": "6.70 to 9.00"}
{"molecule": "Cc1ccc(Nc2ncc3c(n2)N(C)C(=O)N(c2cc(NC(=O)[C@@H]4CN(C(=O)OCC(Cl)(Cl)Cl)C[C@H]4C(=O)NCc4ccc(Cl)cc4)ccc2C)C3)cn1 [Example 57]", "pIC50": "6.70 to 9.00"}
{"molecule": "Cc1ccc(Nc2ncc3c(n2)N(C)C(=O)N(c2cc(NC(=O)c4ccc([N+](=O)[O-])c(OCC(C)C)c4)ccc2C)C3)cn1 [Example 49]", "pIC50": "6.70 to 9.00"}
{"molecule": "Cc1ccc(Nc2ncc3c(n2)N(C)C(=O)N(c2cc(NC(=O)c4ccc5c(c4)N(Cc4ccccc4)C(=O)[C@H](C)N=C5c4ccccc4)ccc2C)C3)cn1 [Example 31]", "pIC50": "6.70 to 9.00"}
{"molecule": "Cc1ccc(Nc2ncc3c(n2)N(C)C(=O)N(c2cc(NC(=O)c4ccc5c(c4)N(Cc4ccccc4)C(=O)[C@H](CC(C)C)N=C5c4ccccc4)ccc2C)C3)cn1 [Example 33]", "pIC50": "6.22 to 6.40"}
{"molecule": "CC[C@H](C)[C@H](NC(=O)c1ccc(C)c(N2Cc3cnc(Nc4ccc(C)nc4)nc3N(C)C2=O)c1)C(=O)N1CCC[C@H]1C(=O)NC(C)(C)C(=O)N[C@@H](CC(C)C)C(=O)N(C)C [Example 16] (X1-IP[Aib]L-NMe2)", "pIC50": "6.70 to 9.00"}
{"molecule": "Cc1ccc(Nc2ncc3c(n2)N(C)C(=O)N(c2cc(NC(=O)[C@H](C)NC(=O)c4ccc([N+](=O)[O-])c(OCC(C)C)c4)ccc2C)C3)cn1 [Example 53]", "pIC50": "< 6.22"}
{"molecule": "COc1ccc(CCOc2cc(C(=O)Nc3ccc(C)c(N4Cc5cnc(Nc6ccc(C)nc6)nc5N(C)C4=O)c3)ccc2[N+](=O)[O-])cc1 [Example 51]", "pIC50": "6.70 to 9.00"}
{"molecule": "Cc1ccc(Nc2ncc3c(n2)N(C)C(=O)N(c2cc(NC(=O)CNC(=O)c4ccc([N+](=O)[O-])c(OCC(C)C)c4)ccc2C)C3)cn1 [Example 52]", "pIC50": "6.70 to 9.00"}
